Data origin: PubChem BioAssay AID1963828

# Tested on: 991263-137-R1-J2-PDC complex spheroid viability
# experimentalDetails: Anticancer human tumor 991263-137-R1-J2-PDC patient-derived colon adenocarcinoma cell line growth inhibition [POLQ]
# measurementConditions: second compound 0.1 µM; first compound 3.16 µM; stronger effect = lower value
measuredProperty: viability, T/C (%)
Give bare numbers, in %.

Worked cases, viability, T/C given:
{"compound": "COc1cccc2c1C(=O)c1c(O)c3c(c(O)c1C2=O)CC(O)(C(=O)CO)CC3OC1CC(N)C(O)C(C)O1 (configuration not stated) + COC1C(OC(N)=O)C(O)C(Oc2ccc3c(O)c(NC(=O)c4ccc(O)c(CC=C(C)C)c4)c(=O)oc3c2C)OC1(C)C", "viability, T/C / %": 45.1}
{"compound": "CC1COCCN1c1cc(-c2ccnn2C)c2ccnc(-c3ccn[nH]3)c2n1 (configuration not stated) + Cc1cccc(N(C)C(=O)C2C(O)CCN2c2nc(C)cc(C(F)(F)F)c2C#N)c1", "viability, T/C / %": 35.7}

For every item below, please supply its viability, T/C.
1. C=CC(=O)N1CCN(c2nc(=O)n(-c3c(C)ccnc3C(C)C)c3nc(-c4c(O)cccc4F)c(F)cc23)C(C)C1 (configuration not stated) + Cc1cccc(N(C)C(=O)C2C(O)CCN2c2nc(C)cc(C(F)(F)F)c2C#N)c1
2. COc1cc(C2c3cc4c(cc3C(OC3OC5COC(C)OC5C(O)C3O)C3COC(=O)C23)OCO4)cc(OC)c1O (configuration not stated) + COC1C(OC(N)=O)C(O)C(Oc2ccc3c(O)c(NC(=O)c4ccc(O)c(CC=C(C)C)c4)c(=O)oc3c2C)OC1(C)C

[116, 95.9]

---

# System: 991263-137-R1-J2-PDC complex spheroid viability
# experimentalDetails: Anticancer human tumor 991263-137-R1-J2-PDC cell line growth inhibition [POLQ];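 also: spheroids exposed to compounds for 7 days before readout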;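 as to viability, T/C: 100% = DMSO vehicle control viability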
# measurementConditions: second compound 0.0316 µM; first compound 0.01 µM; stronger effect = lower value
# Method: Multicellular complex tumor spheroid response to Polymerase (POL) inhibitors (novobiocin, ART-558, RP6685) in combination with a variety of drugs and investigational agents in selected tumor cell lines The POL inhibitors (novobiocin, ART-558, and RP6685) were evaluated both individually and in combination with standard of care and investigational anticancer small molecules within a complex spheroid model of solid tumors. . […]
Assign labels as follows, please: 1.0 for viability, T/C below 90%; 0.0 for viability, T/C equal to or exceeding 90%.

Quick check: does CCc1c2c(nc3ccc(O)cc13)-c1cc3c(c(=O)n1C2)COC(=O)[C@]3(O)CC + Nc1ccc(C#CCN(C(=O)Cc2ncc(C(F)(F)F)cc2C(F)(F)F)c2ccc(F)cc2)nn1 have viability, T/C under 90%? 1.0

Quick check: does CC[C@@]1(O)C(=O)OCc2c1cc1n(c2=O)Cc2cc3c(CN(C)C)c(O)ccc3nc2-1 + COC1C(OC(N)=O)C(O)C(Oc2ccc3c(O)c(NC(=O)c4ccc(O)c(CC=C(C)C)c4)c(=O)oc3c2C)OC1(C)C have viability, T/C under 90%? 0.0

Quick check: does CC[C@@]1(O)C(=O)OCc2c1cc1n(c2=O)Cc2cc3c(CN(C)C)c(O)ccc3nc2-1 + Nc1ccc(C#CCN(C(=O)Cc2ncc(C(F)(F)F)cc2C(F)(F)F)c2ccc(F)cc2)nn1 have viability, T/C under 90%? 0.0

Quick check: does Cn1ncnc1[C@H]1c2n[nH]c(=O)c3cc(F)cc(c23)N[C@@H]1c1ccc(F)cc1 + Nc1ccc(C#CCN(C(=O)Cc2ncc(C(F)(F)F)cc2C(F)(F)F)c2ccc(F)cc2)nn1 have viability, T/C under 90%? 0.0

Quick check: does CC[C@@]1(O)C(=O)OCc2c1cc1n(c2=O)Cc2cc3c(CN(C)C)c(O)ccc3nc2-1 + Cc1cccc(N(C)C(=O)C2C(O)CCN2c2nc(C)cc(C(F)(F)F)c2C#N)c1 have viability, T/C under 90%? 0.0

Quick check: does Cn1ncnc1[C@H]1c2n[nH]c(=O)c3cc(F)cc(c23)N[C@@H]1c1ccc(F)cc1 + COC1C(OC(N)=O)C(O)C(Oc2ccc3c(O)c(NC(=O)c4ccc(O)c(CC=C(C)C)c4)c(=O)oc3c2C)OC1(C)C have viability, T/C under 90%? 1.0

---

# System: 991263-137-R1-J2-PDC complex spheroid viability
# experimentalDetails: Anticancer human tumor 991263-137-R1-J2-PDC cell line growth inhibition [POLQ];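 also: spheroids exposed to compounds for 7 days before readout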;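 as to viability, T/C: 100% = DMSO vehicle control viability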
# measurementConditions: second compound 0.0316 µM; first compound 0.01 µM; stronger effect = lower value
measuredProperty: viability, T/C
State the value with its unit after it.

{"molecule": "CCc1c2c(nc3ccc(O)cc13)-c1cc3c(c(=O)n1C2)COC(=O)[C@]3(O)CC + COC1C(OC(N)=O)C(O)C(Oc2ccc3c(O)c(NC(=O)c4ccc(O)c(CC=C(C)C)c4)c(=O)oc3c2C)OC1(C)C", "viability, T/C": "81%"}
{"molecule": "COc1cccc(OCCCN)c1-c1cc(Nc2cnc(C#N)cn2)n[nH]1 + COC1C(OC(N)=O)C(O)C(Oc2ccc3c(O)c(NC(=O)c4ccc(O)c(CC=C(C)C)c4)c(=O)oc3c2C)OC1(C)C", "viability, T/C": "109%"}

Shift focus to the following entry.
So what's the measured viability, T/C for this one? C=CCn1c(=O)c2cnc(Nc3ccc(N4CCN(C)CC4)cc3)nc2n1-c1cccc(C(C)(C)O)n1 + Cc1cccc(N(C)C(=O)C2C(O)CCN2c2nc(C)cc(C(F)(F)F)c2C#N)c1 114%

---

# System: 991263-137-R1-J2-PDC complex spheroid viability
# experimentalDetails: Anticancer human tumor 991263-137-R1-J2-PDC cell line growth inhibition [POLQ];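 also: spheroids exposed to compounds for 7 days before readout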;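 as to viability, T/C: 100% = DMSO vehicle control viability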
# measurementConditions: second compound 0.1 µM; first compound 0.01 µM; stronger effect = lower value
# Method: Multicellular complex tumor spheroid response to Polymerase (POL) inhibitors (novobiocin, ART-558, RP6685) in combination with a variety of drugs and investigational agents in selected tumor cell lines The POL inhibitors (novobiocin, ART-558, and RP6685) were evaluated both individually and in combination with standard of care and investigational anticancer small molecules within a complex spheroid model of solid tumors. . […]
measuredProperty: viability, T/C (%)
One number for each entry, in %.

{"compound": "C=CCn1c(=O)c2cnc(Nc3ccc(N4CCN(C)CC4)cc3)nc2n1-c1cccc(C(C)(C)O)n1 + COC1C(OC(N)=O)C(O)C(Oc2ccc3c(O)c(NC(=O)c4ccc(O)c(CC=C(C)C)c4)c(=O)oc3c2C)OC1(C)C", "readingUnit": "%", "valueMeasured": 109}
{"compound": "COc1cccc(OCCCN)c1-c1cc(Nc2cnc(C#N)cn2)n[nH]1 + Nc1ccc(C#CCN(C(=O)Cc2ncc(C(F)(F)F)cc2C(F)(F)F)c2ccc(F)cc2)nn1", "readingUnit": "%", "valueMeasured": 105}
{"compound": "CCc1c2c(nc3ccc(O)cc13)-c1cc3c(c(=O)n1C2)COC(=O)[C@]3(O)CC + Nc1ccc(C#CCN(C(=O)Cc2ncc(C(F)(F)F)cc2C(F)(F)F)c2ccc(F)cc2)nn1", "readingUnit": "%", "valueMeasured": 78.6}

For every item below, please supply its viability, T/C.
1. Cn1ncnc1[C@H]1c2n[nH]c(=O)c3cc(F)cc(c23)N[C@@H]1c1ccc(F)cc1 + COC1C(OC(N)=O)C(O)C(Oc2ccc3c(O)c(NC(=O)c4ccc(O)c(CC=C(C)C)c4)c(=O)oc3c2C)OC1(C)C
2. CC[C@@]1(O)C(=O)OCc2c1cc1n(c2=O)Cc2cc3c(CN(C)C)c(O)ccc3nc2-1 + COC1C(OC(N)=O)C(O)C(Oc2ccc3c(O)c(NC(=O)c4ccc(O)c(CC=C(C)C)c4)c(=O)oc3c2C)OC1(C)C
3. CCc1c2c(nc3ccc(O)cc13)-c1cc3c(c(=O)n1C2)COC(=O)[C@]3(O)CC + Cc1cccc(N(C)C(=O)C2C(O)CCN2c2nc(C)cc(C(F)(F)F)c2C#N)c1

1: 83.8; 2: 79.6; 3: 119

Query for 991263-137-R1-J2-PDC complex spheroid viability: what viability, T/C does the record show for Cn1ncnc1[C@H]1c2n[nH]c(=O)c3cc(F)cc(c23)N[C@@H]1c1ccc(F)cc1 + Cc1cccc(N(C)C(=O)C2C(O)CCN2c2nc(C)cc(C(F)(F)F)c2C#N)c1 ? 83.8

---

# Tested on: 991263-137-R1-J2-PDC complex spheroid viability
# experimentalDetails: Anticancer human tumor 991263-137-R1-J2-PDC cell line growth inhibition [POLQ];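 also: spheroids exposed to compounds for 7 days before readout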
# measurementConditions: curve of first compound; second compound 0.1 µM
measuredProperty: pIC50
Numbers only, as −log10 of the molar value.

{"molecule": "CC1COCCN1c1cc(C2(O)CC3CCC(C2)O3)c2cnn(-c3ccn[nH]3)c2n1 (centres undefined) + Nc1ccc(C#CCN(C(=O)Cc2ncc(C(F)(F)F)cc2C(F)(F)F)c2ccc(F)cc2)nn1", "pIC50": 5.74}
{"molecule": "COc1cccc2c1C(=O)c1c(O)c3c(c(O)c1C2=O)CC(O)(C(=O)CO)CC3OC1CC(N)C(O)C(C)O1 (centres undefined) + COC1C(OC(N)=O)C(O)C(Oc2ccc3c(O)c(NC(=O)c4ccc(O)c(CC=C(C)C)c4)c(=O)oc3c2C)OC1(C)C", "pIC50": 5.92}
{"molecule": "CC1COCCN1c1cc(-c2ccnn2C)c2ccnc(-c3ccn[nH]3)c2n1 (centres undefined) + COC1C(OC(N)=O)C(O)C(Oc2ccc3c(O)c(NC(=O)c4ccc(O)c(CC=C(C)C)c4)c(=O)oc3c2C)OC1(C)C", "pIC50": 6.15}

Shift focus to the following entry.
Query for 991263-137-R1-J2-PDC complex spheroid viability: what pIC50 does the record show for COc1cccc(OCCCN)c1-c1cc(Nc2cnc(C#N)cn2)n[nH]1 + Nc1ccc(C#CCN(C(=O)Cc2ncc(C(F)(F)F)cc2C(F)(F)F)c2ccc(F)cc2)nn1 ? 6.23
